test system: PC-3; assay: Growth inhibition of human PC3 cells assessed as cell growth at 10^-5 M after 48 hrs by sulforhodamine B assay; format: functional; settings: PC-3, 48 h, read-out: Activity
Here the recorded growth at 10 µM is given for each entry.
Dear colleague, please return just the value in %, with no unit written.

# Molecule smiles, Study target, growth at 10 µM (%)
measured = [
    ("O=C1/C(=C/c2c(Cl)cccc2Cl)CN(S(=O)(=O)c2ccccc2)C/C1=C\\c1c(Cl)cccc1Cl", "PC-3", 57.5),
    ("Cc1ccc(S(=O)(=O)N2C/C(=C\\c3cc(F)cc(F)c3)C(=O)/C(=C/c3cc(F)cc(F)c3)C2)cc1", "PC-3", -60.3),
    ("Cc1ccc(S(=O)(=O)N2C/C(=C\\c3c(Cl)cccc3Cl)C(=O)/C(=C/c3c(Cl)cccc3Cl)C2)cc1", "PC-3", 67.3),
]

The record that follows has no growth at 10 µM shown yet.
growth at 10 µM in this record for `O=C1/C(=C/c2ccc(Cl)cc2Cl)CN(S(=O)(=O)c2ccccc2)C/C1=C\c1ccc(Cl)cc1Cl` : -25
